Taken from paper PMC4850295.

System: GCaMP5-expressing T. gondii
Construct: whole extracellular parasites expressing GCaMP5 Ca2+ sensor
Design: species or system GCaMP5-expressing Toxoplasma gondii, extracellular; GCaMP5 fluorescence (cytosolic Ca2+) after 100 uM zaprinast in compound-pretreated extracellular parasites, background-subtracted, relative to zaprinast alone
Conditions: 100 uM zaprinast stimulation; 10 min pretreatment; mean of two replicates; 0.23 h
Outcome Measure: fold change in fluorescence relative to zaprinast alone
Give bare numbers.

O=C(Nc1n[nH]c2nc(-c3cccs3)c(Br)cc12)C1CC1 [SB-735297] | 1.322
CN1CCN(CCCNc2nccc(-c3c(-c4ccc(F)cc4)nn4cc(C(F)(F)F)ccc34)n2)CC1 [GW621581X] | 0.8628
CC1=C(C(=O)Nc2ccc3[nH]ncc3c2)C(c2ccc(F)cc2)NC(=O)N1 (stereo not shown) [GSK180736A] | 0.8811
C[C@@H](Oc1cc(-n2cnc3cc(-c4ccncc4)ccc32)sc1C(N)=O)c1ccccc1Cl [GSK479719A] | 1.296
O=C(c1ccc(-c2cc(-c3cn[nH]c3-c3ccccn3)ccn2)cc1)N1CCOCC1 [GW812171X] | 1.17

Each compound below has a recorded value; state its fold change in fluorescence relative to zaprinast alone.
1. NC(=O)c1cccc(Nc2nccc(Nc3cccc4[nH]ncc34)n2)c1 [GW782612X]
2. OCCCNc1nccc(-c2c(-c3cccc(C(F)(F)F)c3)nn3cc(C(F)(F)F)ccc23)n1 [GW630813X]

1.061
1.109

---

Test system: GCaMP5-expressing T. gondii
Construct: whole extracellular parasites expressing GCaMP5 Ca2+ sensor
Set-up: species or system GCaMP5-expressing Toxoplasma gondii, extracellular; GCaMP5 fluorescence (cytosolic Ca2+) after 100 uM zaprinast in compound-pretreated extracellular parasites, background-subtracted, relative to zaprinast alone
Conditions: 100 uM zaprinast stimulation; 10 min pretreatment; mean of two replicates; 0.23 h
Outcome Measure: fold change in fluorescence relative to zaprinast alone

CCCN1CCC(c2ccc(Nc3nc(Nc4cc(F)ccc4C(N)=O)c4cc[nH]c4n3)c(OC)c2)CC1 [GSK1326255A] | 1.826
O=C(Nc1n[nH]c2nc(-c3ccco3)ccc12)C1CC1 | 1.211
Cc1cc(-c2ccco2)cc(C)c1/C=C/c1cncc(-c2nn[nH]n2)c1 [GW458344A] | 1.482
Cc1nnc(-c2ccc(C)c(-c3ccc(C(=O)O)cc3)c2)o1 [GW608005X] | 1.249
COc1ccc(-c2nn3ncccc3c2-c2ccnc(Nc3ccc4c(c3)OCCO4)n2)cc1 [GW827106X] | 0.9888

Okay, here is my list. What is fold change in fluorescence relative to zaprinast alone for each of these?
1. CC(C)COC(=O)c1ccc2c(c1)/C(=C/Nc1ccc(S(N)(=O)=O)cc1)C(=O)N2 [GW416981X]
2. COc1cc(Nc2nccc(N3CCC(NC(=O)Nc4cccc(C(C)=O)c4)C3)n2)cc(OC)c1OC (centres unmarked) [GSK1379753A]
3. COc1cc2ncn(-c3cc(OCc4sccc4Cl)c(C(N)=O)s3)c2cc1OC [GSK448459A]
4. Cc1cc(Cl)cc2c1NC(=O)C2=NNc1ccc(S(N)(=O)=O)cc1 [GW279320X]
5. NCC(NC(=O)c1cc(-c2cccnc2)c(-c2ccnc3[nH]ccc23)s1)c1ccccc1 (centres unmarked) [GSK1323434A]
6. CCCN1CCCC(c2ccc(Nc3nc(Nc4cc(F)ccc4C(N)=O)c4cc[nH]c4n3)c(OC)c2)C1 (centres unmarked) [GSK1173862A]
7. O=C(NCCNc1ccnc(Nc2ccc(F)cc2)n1)Nc1ccccc1F [GSK1379880A]

1: 1.146; 2: 1.391; 3: 1.439; 4: 1.035; 5: 0.997; 6: 1.98; 7: 1.302

Report fold change in fluorescence relative to zaprinast alone for each item below.
1. Fc1cc(Cl)ccc1Nc1ccnc2cc(-c3ccc(CN4CCOCC4)o3)ccc12 [GW560109X]
2. Nc1nccc2scc(-c3ccc4c(c3)CCN4C(=O)Cc3cc(F)ccc3F)c12 [GSK2587663A]
3. CCn1cnc2c(NCc3ccccc3)ncnc21

1: 0.545; 2: 0.7245; 3: 0.8238

Give one value of fold change in fluorescence relative to zaprinast alone per listed compound.
1. O=C(Nc1n[nH]c2nc(-c3ccccc3)c(Br)cc12)C1CC1
2. Fc1ccc(-c2cc(-c3c[nH]nc3-c3ccccn3)ccn2)cc1 [GW680975X]
3. Fc1ccc(Nc2nccc(-c3c(-c4ccc(Cl)cc4)nn4ncccc34)n2)cc1F [GW829058X]
4. O=C(Nc1n[nH]c2nc(-c3cccs3)c(Br)cc12)C1CCCC1
5. CN(c1ccc(NC(=O)Nc2cc(C(F)(F)F)ccc2F)cc1)c1ccnc(Nc2ccc(S(N)(=O)=O)cc2)n1 [GW809893X]

1. 0.9523
2. 1.061
3. 1.046
4. 0.9376
5. 0.2843

The following compounds each have a reported value; give each one's fold change in fluorescence relative to zaprinast alone.
1. NC(=O)c1cccc(Nc2nccc(Nc3ccc(Oc4c(Cl)cccc4Cl)c(Cl)c3)n2)c1 [GW659009A]
2. Fc1ccc(-c2nc[nH]c2-c2ccncc2)cc1
3. COc1cc(Nc2ccnc3cc(-c4ccncc4)ccc23)cc(OC)c1OC [GW494610A]
4. NCC(NC(=O)c1cc(-c2cn[nH]c2)c(-c2ccnc3[nH]ccc23)s1)c1ccccc1 (centres unmarked) [GSK1325775A]
5. NC(=O)c1ccc(-c2nc(-c3ccccn3)c(-c3ccc4c(c3)OCO4)[nH]2)cc1
6. COc1cccc(C2=C(Nc3ccc(Cl)c(C(=O)O)c3)C(=O)NC2=O)c1
7. COC(=O)c1cccc(NC(=O)NC2CCN(c3ccnc(Nc4cc(OC)c(OC)c(OC)c4)n3)C2)c1 (centres unmarked) [GSK1379767A]
8. c1ccc(Oc2ccc(Nc3ccnc4cc(-c5ccc(CN6CCCCC6)o5)ccc34)cc2)nc1 [GW567143X]

[1.248, 0.1031, 0.2498, 1.276, 1.08, 1.176, 1.23, 0.8249]
